molecular target: CB2 receptor (Homo sapiens); assay: CB2 assay: displacement of [3H]CP-55,940 from cloned human CB2 receptor preparation (transfected HEK 293 cells); type: binding; set-up: expressed in transfected cells; conditions: Table 1; ratio of Ki values
observation_type: Ratio CB1/CB2
Enter the number alone.

# example entries with known answers
CCCCCCC(C)(C)c1cc(OC)c2c(c1)OC(C)(C)[C@@H]1CC=C(CO)C[C@@H]21 [Compound 11f] ... 14
CCCCC(C)(C)c1cc(OC)c2c(c1)OC(C)(C)[C@@H]1CC=C(C)C[C@@H]21 ... 93
CCCCCC(C)(C)c1cc(OC)c2c(c1)OC(C)(C)C1CC=C(CO)CC21 (centres unmarked) [Compound 11e] ... 11
CCC(C)(C)c1cc(OC)c2c(c1)OC(C)(C)C1CC=C(CO)CC21 (centres unmarked) [Compound 11b] ... 12
COc1cc(C(C)(C)C)cc2c1C1CC(C)=CCC1C(C)(C)O2 (centres unmarked) ... 5.4
CCCC(C)(C)c1cc(OC)c2c(c1)OC(C)(C)[C@@H]1CC=C(CO)C[C@@H]21 [Compound 11c] ... 12
COc1cc(C(C)(C)C)cc2c1[C@@H]1CC(CO)=CC[C@H]1C(C)(C)O2 [Compound 11a] ... 5.6
CCCCC(C)(C)c1cc(OC)c2c(c1)OC(C)(C)[C@@H]1CC=C(CO)C[C@@H]21 [Compound 11d] ... 9.1
CCCCCCC(C)(C)c1ccc2c(c1)OC(C)(C)C1CC=C(C)CC21 (centres unmarked) ... 7.9
CCCCCCC(C)(C)c1ccc2c(c1)OC(C)(C)C1CC=C(CO)CC21 (centres unmarked) ... 40

Q: Record request: Ratio CB1/CB2 value, item CCCCCC(C)(C)c1ccc2c(c1)OC(C)(C)C1CC=C(CO)CC21 (centres unmarked)
Result: 3.5

Q: Then CCC(C)(C)c1cc(OC)c2c(c1)OC(C)(C)C1CC=C(C)CC21 (centres unmarked) ?
Result: 7.1

====

pKi values for the molecules below.
target: CB2 receptor (Homo sapiens, UniProt P34972); assay: CB2 assay: displacement of [3H]CP-55,940 from cloned human CB2 receptor preparation (transfected HEK 293 cells); type: binding; set-up: expressed in transfected cells; settings: Ki CB2, Table 1; mean ± SEM; cloned human CB2, [3H]CP 55,940
Sequence (P34972 whole entry): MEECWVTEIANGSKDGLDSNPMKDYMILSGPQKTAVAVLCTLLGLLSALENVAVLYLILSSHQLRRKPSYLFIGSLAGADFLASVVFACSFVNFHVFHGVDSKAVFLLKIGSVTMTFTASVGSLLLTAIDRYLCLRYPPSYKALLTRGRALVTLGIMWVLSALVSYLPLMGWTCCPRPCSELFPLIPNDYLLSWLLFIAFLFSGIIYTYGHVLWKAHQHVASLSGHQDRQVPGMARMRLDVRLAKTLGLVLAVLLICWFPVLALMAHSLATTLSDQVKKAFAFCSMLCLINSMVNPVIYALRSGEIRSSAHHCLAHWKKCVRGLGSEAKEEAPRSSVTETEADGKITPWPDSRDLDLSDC
// pKi: -log10(molar conc.)

The cases that follow already have their pKi on record.
CCCCC(C)(C)c1cc(OC)c2c(c1)OC(C)(C)[C@@H]1CC=C(CO)C[C@@H]21 [Compound 11d] ... 8.36
CCCC(C)(C)c1cc(OC)c2c(c1)OC(C)(C)[C@@H]1CC=C(CO)C[C@@H]21 [Compound 11c] ... 7.55
CCCC(C)(C)c1ccc2c(c1)OC(C)(C)[C@@H]1CC=C(CO)C[C@@H]21 [Compound 9c] ... 8.47
CCCC(C)(C)c1cc(OC)c2c(c1)OC(C)(C)[C@@H]1CC=C(C)C[C@@H]21 [Compound 6c] ... 6.49

Below: the item to evaluate.
Q: Fill blank: measured pKi of the molecule CCCCC(C)(C)c1cc(OC)c2c(c1)OC(C)(C)[C@@H]1CC=C(C)C[C@@H]21 [Compound 6d] is ____.
Result: 7.37
